Target: u-PAR (Homo sapiens, UniProt Q03405)
Construct: made in house; host or cells: Chinese hamster ovary (CHO) cells, conditioned media
Sequence (Q03405 23-299): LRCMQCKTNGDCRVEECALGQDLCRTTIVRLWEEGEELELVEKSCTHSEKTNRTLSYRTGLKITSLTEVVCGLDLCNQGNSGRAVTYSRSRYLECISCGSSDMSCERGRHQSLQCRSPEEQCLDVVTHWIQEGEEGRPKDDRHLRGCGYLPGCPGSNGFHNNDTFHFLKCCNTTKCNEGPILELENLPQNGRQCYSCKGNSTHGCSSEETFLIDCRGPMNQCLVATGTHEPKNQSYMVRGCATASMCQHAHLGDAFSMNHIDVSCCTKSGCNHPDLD
Assay: fluorescence titration of u-PAR with ANS (Scatchard)
Assay type: binding
Settings: intact u-PAR, PBS, 25° C.; read-out: dissociation constant of ANS binding to u-PAR
property.name: pKd
// pKd here means minus log10 of the molar concentration (mol/L)

Query: Provide value of pKd for this record tested with u-PAR (Homo sapiens, UniProt Q03405): O=S(=O)(O)c1cccc2cccc(Nc3ccccc3)c12
Reply: 4.47

All figures here come from patent US6025142A.
